All values here come from ChEMBL document CHEMBL1154615.

experiment_description: Stability in phosphate buffer saline at pH 7.4
Assay type: physicochemical
Form field: half-life (one value per entry).

Example entries and their recorded answers appear below.
molecule=O=C(NO)/C(=C/c1ccccc1)C(=O)NCc1ccc(F)cc1 test_result="> 24 h"
molecule="O=C(NO)C(Cc1ccccc1)C(=O)NCc1ccc(F)cc1 (stereo not drawn)" test_result="> 24 h"

Let us move to another entry and its half-life.
Using the record for `O=C(NO)/C(=C\c1ccccc1)C(=O)NCc1ccc(F)cc1` , report its half-life.
> 24 h

---

experiment_description: Half life in rat at 100 mg/kg, iv
Type: ADME, organism-based
Design: dose 100 mg/kg, route intravenous
condition_details: in vivo
measured_parameter: half-life (min)
Please give a number only; it is taken to be in min.

Using the record for `CN(O)C(=O)/C=C/c1ccc2ccccc2c1` , report its half-life.
6
